- tested-system: T1, recombinant human PAD4 (human, UniProt Q9UM07 1-663)
- T1 construct: also called rhPAD4; hPAD4
- T1 sequence (Q9UM07 whole entry): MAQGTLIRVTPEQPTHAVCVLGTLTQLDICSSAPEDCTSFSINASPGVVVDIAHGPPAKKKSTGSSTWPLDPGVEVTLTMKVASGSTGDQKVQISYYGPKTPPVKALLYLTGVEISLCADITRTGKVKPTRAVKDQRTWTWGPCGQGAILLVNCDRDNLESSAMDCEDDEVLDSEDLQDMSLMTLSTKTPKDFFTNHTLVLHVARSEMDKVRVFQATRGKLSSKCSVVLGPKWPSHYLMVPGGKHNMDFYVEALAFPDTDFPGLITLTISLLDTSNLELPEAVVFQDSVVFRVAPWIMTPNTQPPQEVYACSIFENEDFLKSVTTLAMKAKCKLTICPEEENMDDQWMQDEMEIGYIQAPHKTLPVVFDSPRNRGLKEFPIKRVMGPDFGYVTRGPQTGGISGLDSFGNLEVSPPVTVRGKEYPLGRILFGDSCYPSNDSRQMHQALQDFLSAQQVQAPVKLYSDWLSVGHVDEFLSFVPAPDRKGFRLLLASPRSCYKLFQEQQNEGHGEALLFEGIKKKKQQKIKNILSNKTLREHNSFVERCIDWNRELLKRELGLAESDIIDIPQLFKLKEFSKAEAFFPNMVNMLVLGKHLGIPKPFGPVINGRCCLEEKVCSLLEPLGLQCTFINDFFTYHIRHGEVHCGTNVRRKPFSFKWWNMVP
- procedure-text: SPR 37 C, captured antibody, PAD4 analyte, 1 mM CaCl2
koff overview

binder	koff, s⁻¹
hz20-10 (antibody, V domains shown, light constant region not tied to this antibody) VH: QVQLVQSGAEVKKPGASVKVSCKASGYTFTNYGISWVRQAPGQGLEWMGEIYPRSGNTYHNEKFKDRVTMTTDKSTSTAYMELRSLRSDDTAVYYCARSMITTRYWYFDVWGKGTTVTVSS VL: DIVMTQSPDSLAVSLGERATINCRASESVDTYGNSFMHWYQQKPGQPPKLLIYLASNLESGVPDRFSGSGSGTDFTLTIDSLQAEDVAVYYCQQNNEDPLTFGQGTKLEIK	0.00017
hz20-7 (antibody, IgG1, V domains shown, also called clone 20-based hz20-7 antibody) VH: QVQLVQSGAEVKKPGASVKVSCKASGYTFTNYGISWVRQAPGQGLEWMGEIYPRSGNTYHNEKFKDRVTMTTDTSTSTAYMELRSLRSDDTAVYYCARSMITTRYWYFDVWGKGTTVTVSS VL: DIVMTQSPDSLAVSLGERATINCRASESVDTYGNSFMHWYQQKPGQPPKLLIYLASNLESGVPDRFSGSGSGTDFTLTISSLQAEDVAVYYCQQNNEDPLTFGQGTKLEIK	0.00026
hz13-11 (antibody, V domains shown, light constant region not tied to this antibody) VH: EVQLVQSGAEVKKPGATVKISCTSSDFNIKDHFIHWVQQAPGKGLEWMGRIDPEDDETKYAPKFQDRVTITADTSTDTAYMELSSLRSEDTAVYYCAGYGNYEGAMDYWGQGTTVTVSS VL: DVVMTQSPLSLPVTLGQPASISCRASENVNNYGIGFMNWFQQRPGQSPRRLIYAASRRGSGVPDRFSGSGSGTDFTLKISRVEAEDVGVYYCQQSKEVPYTFGGGTKVEIK	0.00015
hz20-14 (antibody, V domains shown, light constant region not tied to this antibody) VH: QVQLVQSGAEVKKPGASVKVSCKASGYTFTNYGISWVRQRPGQGLEWMGEIYPRSGNTYHNEKFKDRVTMTTDKSTSTAYMELRSLRSEDTAVYYCARSMITTRYWYFDVWGKGTTVTVSS VL: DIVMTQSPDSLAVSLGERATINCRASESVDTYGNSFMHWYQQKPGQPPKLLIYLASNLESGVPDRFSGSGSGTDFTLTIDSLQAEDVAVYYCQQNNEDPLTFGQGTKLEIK	0.0002
hz13-1 (antibody, V domains shown, light constant region not tied to this antibody) VH: EVQLVQSGAEVKKPGASVKVSCTSSDFNIKDHFIHWVRQAPGKGLEWMGRIDPEDDETKYAPKFQDRVTMTADTSTDTAYMELSSLRSEDTAVYYCAGYGNYEGAMDYWGQGTLVTVSS VL: DIQMTQSPSSLSASVGDRVTITCRASENVNNYGIGFMNWYQQKPGKAPKLLIYAASRRGSGVPSRFSGSGSGTDFTLTISSLQPEDFATYYCQQSKEVPYTFGQGTKVEIK	0.00015
